Values from patent US12503436B2

# Tested system: STING (Homo sapiens, UniProt Q86WV6, G230A/H232R/R293Q/R71H)
# Sequence (Q86WV6 whole entry R71H/G230A/H232R/R293Q): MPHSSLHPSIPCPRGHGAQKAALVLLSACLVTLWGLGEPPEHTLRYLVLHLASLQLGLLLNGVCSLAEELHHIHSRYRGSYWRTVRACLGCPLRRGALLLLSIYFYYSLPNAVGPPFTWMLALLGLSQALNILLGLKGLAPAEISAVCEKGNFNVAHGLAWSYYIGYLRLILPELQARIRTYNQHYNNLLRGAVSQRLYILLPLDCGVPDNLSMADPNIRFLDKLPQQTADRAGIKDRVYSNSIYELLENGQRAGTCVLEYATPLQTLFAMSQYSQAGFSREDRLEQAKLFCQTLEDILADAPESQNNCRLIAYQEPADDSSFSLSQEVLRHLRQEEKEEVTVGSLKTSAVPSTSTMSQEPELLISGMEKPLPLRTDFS
# Experimental protocol: STING reporter assay in THP1-Dual KO-IFNAR2 cells (2′3′cGAMP stimulation, luciferase reporter)
# Condition description: 15 μM 2′3′cGAMP stimulation, 24 h, read-out: Pharmaron, THP1_IFNAR2 STING 24 h Luci Normalized: GeoMean EC50
Below, each entry is listed alongside its reported EC50.

Molecule	EC50
O=C(Nc1c[nH]c2ccc(OCCC3CCCN(CC(F)(F)F)C3)cc12)C1CC1 (stereo not shown)	200 to 1000 nM
O=C(Nc1c[nH]c2ccc(O[C@H]3C[C@H](c4ccc(C(F)(F)F)cc4)C3)cc12)C1CC(Cl)C1 (stereo partly shown)	200 to 1000 nM
O=C(Nc1c[nH]c2ccc(O[C@H]3C[C@@H](c4ccc(C(F)(F)F)cc4)C3)cc12)C1CC(Cl)C1 (stereo partly shown)	200 to 1000 nM
CC1(F)CC(C(=O)Nc2c[nH]c3ccc(CCOc4ccc(C(F)(F)F)cc4)cc23)C1 (stereo not shown)	200 to 1000 nM
CC(=O)Nc1c[nH]c2ccc(COCC34CC(CN3CC(F)(F)F)C4)cc12	5000 to 100000 nM
CC(=O)Nc1c[nH]c2ccc(OCC(C)(C)C3CCN(CC(F)(F)F)CC3)cc12	5000 to 100000 nM
COCCOCC(=O)Nc1c[nH]c2ccc(CCOc3ccc(C(F)(F)F)cc3)cc12	200 to 1000 nM
N#CC1CCC1C(=O)Nc1c[nH]c2ccc(OCC[C@@H]3C[C@@H]4CN(CC(F)(F)F)C[C@@H]4C3)cc12 (stereo partly shown)	200 to 1000 nM
CC(=O)Nc1c[nH]c2ccc(OCC[C@@H]3C[C@@H]4CN(CC(F)F)C[C@@H]4C3)cc12	1000 to 5000 nM
CC1(C(=O)Nc2c[nH]c3ccc(O[C@H]4C[C@@H](c5ccc(C(F)(F)F)cc5)C4)cc23)CCOC1 (stereo partly shown)	200 to 1000 nM
CC(=O)Nc1c[nH]c2ccc(CCOc3ccccc3)cc12	200 to 1000 nM
CC(=O)Nc1c[nH]c2ccc(CCOc3ccc(C4CCC(F)(F)CC4)cc3)cc12	40 to 200 nM
COCC(=O)Nc1c[nH]c2ccc(OCCc3ccc(C(F)(F)F)cc3)cc12	40 to 200 nM
C[C@]1(C(=O)Nc2c[nH]c3ccc(OCC[C@@H]4C[C@@H]5CN(CC(F)(F)F)C[C@@H]5C4)cc23)C[C@H](CO)C1	200 to 1000 nM
N#CC1(C(=O)Nc2c[nH]c3ccc(OCCc4ccc(C(F)(F)F)cc4)cc23)CC1	200 to 1000 nM
CO[C@H]1C[C@H](C(=O)Nc2c[nH]c3ccc(OCCc4ccc(C(F)(F)F)cc4)cc23)C1	40 to 200 nM
